Just for reference, patent US20230114241A1 is where these values come from.

Target: human sphingosine-1-phosphate receptor 1 (S1P1) (Homo sapiens)
Experiment: β-Arrestin2 recruitment assay (PathHunter), S1P1 CHO-K1 cells
Format: cell-based
Conditions: β-arrestin2 recruitment, S1P1; read-out: hS1P1 B-arrestin2 pEC50 (converted)
Sequence (P21453 whole entry): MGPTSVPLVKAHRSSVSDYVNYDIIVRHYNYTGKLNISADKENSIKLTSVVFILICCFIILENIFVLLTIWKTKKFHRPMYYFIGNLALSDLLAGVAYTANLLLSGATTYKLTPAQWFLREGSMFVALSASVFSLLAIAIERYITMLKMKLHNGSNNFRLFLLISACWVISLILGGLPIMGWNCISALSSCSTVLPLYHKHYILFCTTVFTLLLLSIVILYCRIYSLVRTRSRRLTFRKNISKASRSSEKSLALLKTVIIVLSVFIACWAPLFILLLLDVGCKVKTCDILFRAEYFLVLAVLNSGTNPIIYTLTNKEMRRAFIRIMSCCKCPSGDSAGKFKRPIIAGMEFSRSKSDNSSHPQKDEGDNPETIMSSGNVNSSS
Sequence (P32121 whole entry partner): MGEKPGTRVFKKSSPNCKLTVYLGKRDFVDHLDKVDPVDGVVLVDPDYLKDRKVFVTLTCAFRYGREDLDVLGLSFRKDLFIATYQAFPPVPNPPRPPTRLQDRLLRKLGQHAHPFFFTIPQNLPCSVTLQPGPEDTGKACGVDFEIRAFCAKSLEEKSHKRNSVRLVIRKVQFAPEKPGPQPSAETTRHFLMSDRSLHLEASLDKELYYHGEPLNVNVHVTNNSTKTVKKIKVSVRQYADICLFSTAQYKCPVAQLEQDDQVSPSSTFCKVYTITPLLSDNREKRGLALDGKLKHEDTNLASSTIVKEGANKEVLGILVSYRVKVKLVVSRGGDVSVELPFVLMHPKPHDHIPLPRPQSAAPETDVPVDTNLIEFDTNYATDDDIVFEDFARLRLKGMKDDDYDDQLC
Task for the reader: assign each of the following molecules its reported EC50.

As a guide, the following entries are already answered.
Item: CC(C)Nc1ccc(-c2nnc(-c3ccc4[nH]c(=O)oc4c3)o2)cc1C#N [Compound 484] | EC50: < 10 µM

Value of EC50 reported for the molecule CC(C)Nc1ccc(-c2nc(-c3ccc4c(c3)NC(=O)CC4)no2)cc1C#N [Compound 435] is < 10 µM

Sample CC(C)(CO)Cn1nnc2cc(-c3noc(-c4ccccc4Cl)n3)ccc21 [Compound 526] ; EC50 observed: > 10 µM

Would you kindly look at the next entry?
What the record says about N#Cc1cc(-c2nnc(-c3ccc4c(c3)CCC(=O)N4)o2)ccc1NCCF [Compound 476] : EC50 is < 10 µM

###

I'd be grateful if you could share measured Emax for these entries.
Molecular target: human sphingosine-1-phosphate receptor 1 (S1P1) (Homo sapiens)
Assay: Inhibition of cAMP production (HTRF cAMP HiRange), S1P1 CHO-K1 cells
Assay type: cell-based
Settings: CHO-K1; efficacy normalized to maximum efficacy of fingolimod; read-out: hS1P1 CAMP SPAN
Sequence (P21453 whole entry): as the sequence (P21453 whole entry) above

Please give Emax, item by item, for the list that follows.
1. CC(C)n1nnc2cc(-c3nc(-c4ccccc4Br)no3)cnc21
2. CCC1(CC)CC(=O)c2cc(-c3nc(-c4ccco4)no3)ccc2O1
3. Cc1nc2cc(-c3nnc(-c4ccc(NC(C)C)c(C#N)c4)o3)ccc2[nH]1
4. CC(C)Nc1ccc(-c2nc(-c3ccc4c(c3)NC(=O)C4)no2)cc1C#N
5. Cn1cnc2cc(-c3nnc(-c4ccc(NCC(F)F)c(C#N)c4)o3)ccc21

< 75%
> 75%
> 75%
> 75%
< 75%

Here are 8 compounds. What values of Emax were reported for them?
1. COc1ncccc1-c1noc(-c2ccc3c(c2)nnn3C(C)C)n1
2. CC(C)n1ccc2cc(-c3noc(-c4ccc(F)cc4)n3)ccc21
3. CCc1ccccc1-c1nc(-c2ccc3c(c2)nnn3CC(C)(C)CO)no1
4. CCC1(CC)CC(=O)c2cc(-c3nc(-c4ccc5c(c4)CC(=O)N5)no3)ccc2O1
5. CCC1CC(=O)c2ccc(-c3nc(-c4cccnc4)no3)cc2O1 (stereo not drawn)
6. CCCC1CC(=O)c2ccc(-c3nc(-c4cccnc4)no3)cc2O1 (stereo not drawn)
7. CC(C)Cn1nnc2cc(-c3nc4cccc(Br)c4o3)ccc21
8. Cn1cnc2ccc(-c3nnc(-c4ccc(NC(C)(C)CO)c(C#N)c4)o3)cc21

1: > 75%; 2: < 75%; 3: > 75%; 4: > 75%; 5: < 75%; 6: < 75%; 7: > 75%; 8: < 75%

Take each entry in turn and give its Emax.
1. Cc1nc2cc(-c3nc(-c4ccc5c(c4)nnn5C(C)C)no3)ccc2[nH]1
2. CCC1CC(=O)c2ccc(-c3nc(-c4ccncc4)no3)cc2O1 (stereo not drawn)
3. CCC1(CC)CC(=O)c2cc(-c3nc(-c4sccc4OC)no3)ccc2O1
4. COc1ccccc1-c1noc(-c2ccc3c(c2)NC(=O)CN3)n1
5. CC(C)Nc1ccc(-c2ncc(-c3ccc4c(c3)nnn4C(C)C)cn2)cc1C#N

1: > 75%; 2: < 75%; 3: > 75%; 4: > 75%; 5: < 75%

###

Biological target: human sphingosine-1-phosphate receptor 1 (S1P1) (Homo sapiens, UniProt P21453)
Assay: Inhibition of cAMP production (HTRF cAMP HiRange), S1P1 CHO-K1 cells
Format: cell-based
Conditions: CHO-K1; efficacy normalized to maximum efficacy of fingolimod; read-out: hS1P1 CAMP SPAN
measured property: Emax

Solved cases (3 shown):
Looking up Cc1ccccc1-c1csc(-c2cnc3c(ccn3C(C)C)c2)n1 [Compound 407] , I found its Emax recorded as > 75%

The compound listed as Cc1ccccc1-c1noc(-c2cnc3c(c2)nnn3C(C)C)n1 [Compound 382] has a reported Emax of > 75%

Recorded result, CC(C)(O)Cn1nnc2cc(-c3nc(-c4ccc5nonc5c4)no3)ccc21 [Compound 590] , Emax: < 75%

Here are 6 compounds. What values of Emax were reported for them?
1. COc1ccc(-c2nc(-c3ccc4c(c3)nnn4CC(C)(C)CO)no2)c(C)c1 [Compound 523]
2. CCC1(CC)CC(=O)c2cc(-c3nc(-c4cncc(N)c4)no3)ccc2O1 [Compound 502]
3. Cc1nccnc1-c1nc(-c2ccc3c(c2)nnn3CC(C)(C)CO)no1 [Compound 540]
4. CC(C)Nc1ccc(-c2nnc(-c3ccc4c(c3)ncn4C)o2)cc1C#N [Compound 572]
5. CCC1(CC)CC(=O)c2cc(-c3nc(-c4cnccc4C)no3)ccc2O1 [Compound 549]
6. CC(C)n1nnc2cc(-c3cc(-c4ccccc4)n(C)c3)ccc21 [Compound 544]

1. > 75%
2. > 75%
3. < 75%
4. < 75%
5. > 75%
6. < 75%

###

Kindly supply the reported EC50 values for the records listed here.
Target: UniProt P21453
Assay: Inhibition of cAMP production (HTRF cAMP HiRange), S1P1 CHO-K1 cells
Assay type: cell-based
Settings: inhibition of cAMP production; potency; read-out: hS1P1 CAMP pEC50 (converted)

Reported EC50 for `C=CCNc1ccc(-c2nc(-c3ccc4sc(N)nc4c3)no2)cc1C#N` was < 316 nM

Given item `C=C(F)CNc1ccc(-c2nc(-c3ccc4c(c3)CCC(=O)N4)no2)cc1C#N` , the value recorded as its EC50 is < 316 nM

The molecule `CCC1(CC)CC(=O)c2cc(-c3nnc(-c4cccnc4)s3)ccc2O1` showed EC50 equal to < 316 nM

Quick note, EC50 for `C=CCNc1ccc(-c2nc(-c3ccc4c(c3)nnn4C(C)C)no2)cc1C#N` landed at < 316 nM

# molecule `CC(C)n1nnc2cc(-c3nc(-c4ccc(COc5ccccc5)cc4)no3)ccc21` ; its EC50 = > 316 nM

Give one value of EC50 per listed molecule.
1. CCC1(CC)CC(=O)c2cc(-c3nc(-c4ccc(NS(C)(=O)=O)cc4)no3)ccc2O1
2. CC(F)CNc1ccc(-c2nc(-c3ccc4c(c3)CCC(=O)N4)no2)cc1C#N (stereo not drawn)
3. O=C1CC2(CCC(F)(F)CC2)Oc2ccc(-c3nc(-c4cccnc4)no3)cc21
4. c1ccc(-c2noc(-c3ccc4[nH]nnc4c3)n2)cc1
5. Cc1ccccc1-c1noc(-c2ccc3c(c2)nnn3C(C)C)n1

["< 316 nM", "< 316 nM", "> 316 nM", "> 316 nM", "< 316 nM"]

###

Target: UniProt P21453
Assay: β-Arrestin2 recruitment assay (PathHunter), S1P1 CHO-K1 cells
Format: cell-based
Settings: β-arrestin2 recruitment, S1P1; read-out: hS1P1 B-arrestin2 pEC50 (converted)
measured property: EC50

// worked examples, EC50 included
Kindly note the recorded EC50 for `Cc1ccncc1-c1noc(-c2ccc3c(c2)NC(=O)CN3)n1` , which is > 10 µM

EC50 reading for `CCC1(CC)CC(=O)c2cc(-c3nc(-c4cncc(N)c4)no3)ccc2O1` : < 10 µM

Reported EC50 for `CC(C)n1nnc2cc(-c3nc(-c4ccccc4Br)no3)cnc21` was < 10 µM

Looking up `O=C1CC(CO)(CO)Oc2ccc(-c3nc(-c4cccnc4)no3)cc21` , I found its EC50 recorded as > 10 µM

EC50 measured on `CCC1(CC)CC(=O)c2cc(-c3nc(-c4ccco4)no3)ccc2O1` = < 10 µM

For record `COc1cc(NC(C)=O)ccc1-c1nc(-c2ccncc2)no1` the listed EC50 is > 10 µM

So, `CC(C)Nc1ccc(-c2nnc(-c3ccc4ncn(C)c4c3)o2)cc1C#N` ? Its EC50 was < 10 µM

response.value for `CC(C)n1nnc2cc(-c3noc(-c4cccc5c4CCC5=O)n3)ccc21` (field: EC50) = < 10 µM

Per the record, `COc1ccc(-c2nc(-c3ccc4c(ccn4C(C)C)c3)no2)cc1` has EC50 of > 10 µM

Please fill in: EC50 reported for `Cc1ccncc1-c1nc(-c2ccc3c(c2)nnn3CC(C)(C)CO)no1` = > 10 µM

Your task in this section: give EC50 for each listed record.
1. CC(C)Nc1ccc(-c2ncc(-c3ccc4c(c3)nnn4C(C)C)cn2)cc1C#N
2. COc1cccc(-c2csc(-c3ccc4c(ccn4C(C)C)c3)n2)c1
3. Cc1cn(C)nc1-c1noc(-c2ccc3c(c2)nnn3CC(C)(C)O)n1

["< 10 µM", "> 10 µM", "> 10 µM"]

###

Molecular target: human sphingosine-1-phosphate receptor 1 (S1P1) (Homo sapiens, UniProt P21453)
Assay: Inhibition of cAMP production (HTRF cAMP HiRange), S1P1 CHO-K1 cells
Format: cell-based
Conditions: inhibition of cAMP production, S1P1; read-out: hS1P1 CAMP pEC50 (converted)
So I've got a bunch of compounds here, and I need their EC50 values.

Previously resolved entries follow.
Consider CCC1(CC)CC(=O)c2cc(-c3noc(-c4ccc(NCC5CC5)c(C#N)c4)n3)ccc2O1 [Compound 444] . Its measured EC50 is > 316 nM

# EC50 (compound: CN1C(=O)Cc2cc(-c3nc(-c4cccnc4)no3)ccc21 [Compound 377] ) is > 316 nM

Lookup result for COc1ccccc1-c1c[nH]c(-c2ccc3c(c2)nnn3C(C)C)c1 [Compound 566] ; measured EC50: > 316 nM

Reported EC50 of Cc1ccncc1-c1noc(-c2ccc3c(c2)nnn3C2CCOCC2)n1 [Compound 439] : > 316 nM

Report EC50 for each item below.
1. Cn1cnc2ccc(-c3nnc(-c4ccc(NC(C)(C)CO)c(C#N)c4)o3)cc21 [Compound 634]
2. CCC1(CC)CC(=O)c2cc(-c3nc(-c4ccc(C)nc4)no3)ccc2O1 [Compound 550]

1. > 316 nM
2. > 316 nM

Hey, can you go through the list below and give me EC50 for every item?
1. Cc1ccccc1-c1cc(-c2ccc3c(c2)nnn3C(C)C)n(C)c1 [Compound 517]
2. N#Cc1cc(-c2nnc(-c3ccc4c(c3)ncn4CCO)o2)ccc1NCC(F)F [Compound 578]
3. CCC1(CC)CC(=O)c2cc(-c3nc(-c4ccco4)no3)ccc2O1 [Compound 465]
4. COc1ccccc1-c1noc(-c2cnc3c(c2)nnn3C(C)C)n1 [Compound 383]
5. COc1ccccc1-c1nc(-c2ccc3c(c2)nnn3CC(C)(C)CO)no1 [Compound 525]
6. COc1ccc2nc(-c3ccc4c(c3)nnn4CC(C)C)oc2c1 [Compound 452]

["> 316 nM", "> 316 nM", "< 316 nM", "< 316 nM", "> 316 nM", "> 316 nM"]

Below are some compounds; for each one, tell me its EC50.
1. CC(C)n1nnc2cc(-c3nc4ccncc4o3)ccc21 [Compound 503]
2. CCC1(CC)CC(=O)c2cc(-c3nc(-c4ccsc4)no3)ccc2O1 [Compound 468]
3. Cc1ccsc1-c1nc(-c2ccc3c(c2)nnn3C(C)(C)CO)no1 [Compound 611]
4. Cc1ccccc1-c1coc(-c2ccc3c(c2)nnn3C(C)C)n1 [Compound 433]
5. O=C1CNc2ccc(-c3nc(-c4cccnc4)no3)cc2N1 [Compound 629]
6. COc1ccccc1-c1nnc(-c2ccc3c(c2)oc(=O)n3C)o1 [Compound 406]

> 316 nM
< 316 nM
< 316 nM
< 316 nM
> 316 nM
< 316 nM
